# System: HEP-G2 cells
# METHOD SUMMARY: cells
# SETUP CONDITIONS: Homo sapiens, HepG2, read-out: HEP-G2 Emax (% of FCCP), HEP-G2 cells, maximal stimulation relative to FCCP
For each record, write down the corresponding Emax.
Give bare numbers, in %.

SAMPLE SMILES: CC(C)(C)c1cc(/C=N/C(C#N)=C(\N)C#N)cc(C(C)(C)C)c1O
MEASURED ON: HEP-G2 cells
UNIT OF MEASUREMENT: %
Emax: 45

Okay, here is my list. What is Emax for each of these?
1. Cc1c(Cl)cc(C(C)(C)C)c(O)c1C(=O)Nc1cc(C(F)(F)F)ccc1F
2. Cc1c(Br)cc(C(C)(C)C)c(O)c1C(=O)Nc1ccc(C(C)C)cc1C(F)(F)F
3. CCCCCCCC[P+](CCCCCCCC)(CCCCCCCC)Cc1cc(C(C)(C)C)c(O)c(C(C)(C)C)c1.[Br-]
4. CCOC(=O)C(=Cc1cc(C(C)(C)C)c(O)c(C(C)(C)C)c1)C(=O)OCC
5. CCOC(=O)/C(=C/c1cc(C(C)(C)C)c(O)c(C(C)(C)C)c1)C(C)=O
6. Cc1ccc(C(C)C)c(O)c1C(=O)Nc1ccc([N+](=O)[O-])cc1Cl

Result:
95
90
100
100
58
55

Okay, here is my list. What is Emax for each of these?
1. CC(C)(C)c1cc(/C=C(\C#N)c2cc(C(F)(F)F)cc(C(F)(F)F)c2)cc(C(C)(C)C)c1O
2. CC(C)c1cccc(C(=O)Nc2ccc([N+](=O)[O-])cc2Cl)c1O

Result:
80
105
